These data points were gathered from ChEMBL document CHEMBL1159269.

# testTarget: Human immunodeficiency virus type 1 reverse transcriptase (Human immunodeficiency virus 1)
# procedureSummary: Inhibition of HIV1 reverse transcriptase p66/p51 using template-primer [oligo(dT)12-18 + poly(rA)] by competitive type inhibition assay
measuredProperty: pKi
To interpret pKi, take it as minus log10 of a concentration measured in moles per litre.

Query: Value lookup for pKi; key = COc1cc(O)c2c(=O)c3c(O)c(-c4c(O)c([C@@H]5O[C@H](CO)[C@@H](O)[C@H](O)[C@H]5O)c(O)c5c(=O)cc(-c6ccc(O)c(O)c6)oc45)cc(O)c3oc2c1
Reply: 5.17
